# System: SARS-CoV-2
# ASSAY TEXT: microbe, parasite or virus in culture
# CONDITION NOTES: Severe acute respiratory syndrome coronavirus 2, Vero C1008, 48 h, read-out: pIC50 (converted)
Provide the recorded IC50 for the entries that follow.

Prompt line: Reported IC50 for `NCCO` : what is it?
Response line: > 20 µM

Prompt line: I would be grateful if you could share the reported IC50 for COc1cc(NCc2ccc3nc(N)nc(N)c3c2C)cc(OC)c1OC [TRIMETREXATE] .
Response line: > 20 µM

Prompt line: // query IC50 value for entry `CN(C)CCOc1ccc(/C(=C(\CCCl)c2ccccc2)c2ccccc2)cc1`
Response line: > 20 µM

Prompt line: Query: IC50; subject: COc1ccccc1OCCNCC(O)COc1cccc2[nH]c3ccccc3c12 (stereo not given)
Response line: 15.5 µM

Prompt line: Find the recorded IC50 belonging to CC(=O)C1CCC2C3CCC4CC(O)CCC4(C)C3CC(O)C12C (stereo not given) and report it.
Response line: > 20 µM

Prompt line: Can you share its IC50? I mean this molecule: `CNC(=O)c1cc(Oc2ccc(NC(=O)Nc3ccc(Cl)c(C(F)(F)F)c3)c(F)c2)ccn1`
Response line: > 20 µM

Prompt line: Entry under review: CN1C2CCC1CC(O)C2 (stereo not given) . Reported IC50?
Response line: > 20 µM

Prompt line: What IC50 value was documented for this molecule, `Nc1ccncc1` ?
Response line: > 20 µM

Prompt line: Param item = `O=C(CCCCCCNC(=O)c1cnc(N(c2ccccc2)c2ccccc2)nc1)NO` ; retrieve measured IC50.
Response line: > 20 µM

Prompt line: Return reported IC50; argument: NC[C@H](O)c1ccc(O)c(O)c1 [NOREPINEPHRINE]
Response line: > 20 µM

Prompt line: Recorded IC50 for `CC1(C)[C@@H](OC(=O)CCC(=O)O)CC[C@]2(C)[C@H]3C(=O)C=C4[C@@H]5C[C@@](C)(C(=O)O)CC[C@]5(C)CC[C@@]4(C)[C@]3(C)CC[C@@H]12` , please?
Response line: > 20 µM

Prompt line: Can you share its IC50? I mean this molecule: `Cc1ccc2nc(N3CCS(=O)(=O)c4ccccc4C3)nc(NCC3(N)COC3)c2c1`
Response line: > 20 µM

Prompt line: Quick one: IC50 for `CC(C)(C)CC(C)(C)c1ccc(O)c(Cc2ccc(Cl)cc2Cl)c1` ?
Response line: > 20 µM

Prompt line: What does the data say about its IC50? Entry: `O=C(/C=C/c1ccc(O)cc1)c1ccccc1O`
Response line: > 20 µM

Prompt line: Fill in: IC50 of `CN(CCCCCCCCCCN(C)C(=O)Oc1cccc([N+](C)(C)C)c1)C(=O)Oc1cccc([N+](C)(C)C)c1` is ___
Response line: > 20 µM

Prompt line: Bench note: what IC50 did `CN1CCN(C2=Nc3cscc3/C(=C/C#N)c3cscc32)CC1` show?
Response line: > 20 µM

Prompt line: # input molecule: `COc1cc(C(=O)NCCCCCC(=O)O)cc(OC)c1OC` ; wanted: its IC50
Response line: > 20 µM

Prompt line: Please report the recorded IC50 for `C[C@@H]1CC(=O)NN=C1c1ccc(NN=C(C#N)C#N)cc1` .
Response line: > 20 µM

Prompt line: Field request: IC50 | item: CCC(CO)NC(=O)[C@@H]1C=C2c3cccc4[nH]cc(c34)CC2N(C)C1 (stereo not given in full)
Response line: > 20 µM

Prompt line: Sample O=C1CCC(c2ccccc2)(C2CCN(C/C=C/c3ccccc3)CC2)C(=O)N1 (stereo not given) — what was its IC50?
Response line: > 20 µM

Measured values drawn from ChEMBL document CHEMBL4651402 for this set.
